System: Escherichia coli TOP10;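 note: peptides expressed intracellularly from a pBAD plasmid library in pooled LB shake-flask culture, induced with 0.3% L-arabinose, DNA abundance read by NGS, three biological replicates, DESeq2 with apeglm shrinkage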
Experiment: shrunken log2 fold change of peptide-encoding DNA abundance (4.5 h post-induction vs induction); higher = less antimicrobial activity (less host growth inhibition)
Condition: time post-induction: 4.5 h; library: site-saturation at positions 5, 18, 19, 20
Below, each of the sequences is paired with its reported shrunken log2 fold change value.

{"Biosequence": "RRIRYRPPRLPRPRPRPDVIPRP", "shrunken log2 fold change": -0.0708}
{"Biosequence": "RRIRYRPPRLPRPRPRPCCKPRP", "shrunken log2 fold change": 0.0599}
{"Biosequence": "RRIRRRPPRLPRPRPRPAMHPRP", "shrunken log2 fold change": 0.422}
{"Biosequence": "RRIRERPPRLPRPRPRPWNCPRP", "shrunken log2 fold change": -0.327}
{"Biosequence": "RRIRQRPPRLPRPRPRPYSKPRP", "shrunken log2 fold change": -0.119}
{"Biosequence": "RRIRWRPPRLPRPRPRPGWSPRP", "shrunken log2 fold change": 0.221}
{"Biosequence": "RRIRMRPPRLPRPRPRPFQNPRP", "shrunken log2 fold change": 2.76}
{"Biosequence": "RRIRLRPPRLPRPRPRPRLGPRP", "shrunken log2 fold change": 0.518}
{"Biosequence": "RRIRYRPPRLPRPRPRPGTEPRP", "shrunken log2 fold change": -0.521}
{"Biosequence": "RRIRPRPPRLPRPRPRPSLMPRP", "shrunken log2 fold change": -0.155}
{"Biosequence": "RRIRPRPPRLPRPRPRPEQPPRP", "shrunken log2 fold change": 0.184}
{"Biosequence": "RRIRERPPRLPRPRPRPLNAPRP", "shrunken log2 fold change": -0.113}
{"Biosequence": "RRIRCRPPRLPRPRPRPQHTPRP", "shrunken log2 fold change": -0.0159}
{"Biosequence": "RRIRCRPPRLPRPRPRPKRHPRP", "shrunken log2 fold change": 0.341}
{"Biosequence": "RRIRKRPPRLPRPRPRPQARPRP", "shrunken log2 fold change": -0.0213}
